Every entry's value here was drawn from PubChem BioAssay AID686978.

test: qHTS for Inhibitors of human tyrosyl-DNA phosphodiesterase 1 (TDP1): qHTS in cells in absence of CPT; conditions: DT40 Tdp1-/- hTDP1 cells, no CPT, ATP luminescence, 48 h; further: nearly all actives have a fitted effect of over 55% in size
About 64,000 (15%) of roughly 420,000 compounds were called active. Another 27% or so got no clear call; they are omitted. The call rests on the fitted dose curve; in most records, active means well fitted inhibition curve with a large enough effect; inconclusive means small, poorly fitted or top-dose-only effect; inactive means flat fitted curve, though single readings scatter. A selection follows.
Possible outcomes: class 1 (active), class 0 (inactive)

Cc1cc(/C=C2/NC(=O)NC2=O)c(C)n1-c1cccnc1 | class 0
CCCCOC(=O)Nc1nccs1 | class 0
CN(C)C(=S)N=c1ssc(=S)n1Cc1ccco1 | class 1
CCCS(=O)(=O)C(=C1Nc2ccccc2N1)S(=O)(=O)CCC | class 0
CC1CN(Cc2ccco2)C(=S)N(c2ccccc2)C1=O (stereo unspecified) | class 0
Cc1ccc(CN2C(=O)N/C(=C/c3cc(C)n(-c4ccccn4)c3C)C2=O)cc1 | class 1

====

assay: qHTS for Inhibitors of human tyrosyl-DNA phosphodiesterase 1 (TDP1): qHTS in cells in absence of CPT; conditions: DT40 Tdp1-/- hTDP1 cells, no CPT, ATP luminescence, 48 h; further: nearly all actives have a fitted effect of over 55% in size
In all, about 420,000 compounds went through this assay and about 64,000 (15%) were called active. About 27% were inconclusive and are not listed. The call rests on the fitted dose curve; in most records, active means well fitted inhibition curve with a large enough effect; inconclusive means small, poorly fitted or top-dose-only effect; inactive means flat fitted curve, though single readings scatter. Not all results are given here.
Possible outcomes: TRUE for active, FALSE for inactive

COc1ccc(S(=O)(=O)Nc2ccc(F)cc2)c(C)c1C | FALSE
O=C(O)CN1c2cccc3cccc(c23)S1(=O)=O | FALSE
COc1ccc(C23NCCN2C(=O)c2ccccc23)cc1 (stereo not drawn) | FALSE
O=C(/C=C/c1ccccc1Cl)Nc1ccc(S(=O)(=O)Nc2ncccn2)cc1 | FALSE
O=C(O)c1ccc(COc2c(F)c(F)cc(F)c2F)o1 | FALSE
c1n[nH]c(NCc2ccc3c(c2)OCO3)n1 | FALSE
COCCCn1cc(CN2CC(N(C)C)CS2(=O)=O)nn1 (stereo not drawn) | FALSE
CC(C)CC(CCc1ccccc1)OS(N)(=O)=O (stereo not drawn) | FALSE
Cc1ccccc1OCCC(=O)OCC(=O)NCCc1ccc(S(N)(=O)=O)cc1 | FALSE
CC(=O)NC(CC(=O)Nc1nc(-c2ccccc2)c(C(C)=O)s1)c1ccccc1 (stereo not drawn) | FALSE
COCOCCn1cc(CN2CCS(=O)(=O)N(Cc3ccc(-c4ccccc4)cc3)C(CC(C)C)C2=O)nn1 (stereo not drawn) | TRUE
Cc1ccc(S(=O)(=O)NCC(=O)N2CCOCCOCCOCCOCC2)cc1 | FALSE
O=C(CSC1=Nc2ccccc2C2=NC(CC(=O)NCc3ccco3)C(=O)N12)NCc1ccco1 (stereo not drawn) | FALSE
COc1ccccc1NC1=NC2(CCCC2)N=C(N)N1 | FALSE
C[C@H](CO)N1C[C@H](C)[C@@H](CN(C)C(=O)Nc2ccc3c(c2)OCO3)Oc2c(cccc2N(C)C)C1=O | FALSE
C/C(=N/NC(=O)c1ccn(C)n1)c1ccncc1 | FALSE
COc1ccc(NC(=O)CN2C(=O)NC(C)(c3ccccc3)C2=O)cn1 (stereo not drawn) | FALSE
CCCC(=O)Nc1cc2nn(-c3ccccc3)nc2cc1C | FALSE
N#Cc1ccccc1NC(=O)c1ccc2c(c1)OCO2 | FALSE
COc1ccccc1NC(=O)CSC1=Nc2ccccc2C2=NC(CC(=O)NCc3cccs3)C(=O)N12 (stereo not drawn) | TRUE
O=C(CC1N=C2c3ccccc3N=C(SCc3ccccc3Cl)N2C1=O)NCc1ccco1 (stereo not drawn) | FALSE
Cc1[nH]c2ccc(S(N)(=O)=O)cc2c1C | FALSE
COc1ccccc1P(=O)(c1ccccc1)c1ccccc1NC(C)=O (stereo not drawn) | FALSE
